Molecular target: Human BCL-XL protein (N-terminal HiBiT tagged BCL-XL expressed in HT1080 cells) (Homo sapiens)
Construct: expressed in transfected cells; host or cells: HT-1080 (ATCC CCL-121), stably transduced with lentivirus pLV-UBC-N-HiBiT-BCL-XL-PGK-puro and selected with puromycin
Sequence (Q07817 whole entry): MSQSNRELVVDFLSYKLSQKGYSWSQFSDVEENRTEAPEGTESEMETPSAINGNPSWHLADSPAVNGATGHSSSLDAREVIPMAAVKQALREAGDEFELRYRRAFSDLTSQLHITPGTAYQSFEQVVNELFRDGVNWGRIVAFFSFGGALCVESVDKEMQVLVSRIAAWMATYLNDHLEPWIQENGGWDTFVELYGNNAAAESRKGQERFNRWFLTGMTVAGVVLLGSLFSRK
Experiment: HiBiT Based Degradation Assay
Type: cell-based
Settings: BCL-XL degradation, HT1080 cells expressing N-HiBiT-BCL-XL, 24 hours incubation, normalized with DMSO control; geometric mean for multiple data points; read-out: EC50 (24 h)
Experimental: HiBiT Based Degradation Assay Human BCL-XL protein coding open reading frame fused with N-terminal HiBiT coding sequence (N-HiBiT-BCL-XL) was synthesized from Integrated DNA Technologies (IDT). Next, N-HiBiT-BCL-XL sequence was cloned into pLV-UBC-PGK-Puro, a lentivirus plasmid purchased from Vectorbuilder, to generate pLV-UBC-N-HiBiT-BCL-XL-PGK-puro. […] After incubation, luminescence was read on a PHERAstar FSX Plate Reader (BMG). […]
Experimental endpoint: DC50

Sample answers from the record:
- Molecule: "Cc1cc(OCCC[C@@H]2CCN(CC(=O)Nc3ccc4c(C5CCC(=O)NC5=O)nn(C)c4c3)[C@@H](C)C2)ccc1-c1ccc(N2CCc3ccnc(C(=O)Nc4nc5ccccc5s4)c3C2)nc1C(=O)O (stereo partly drawn) [Compound 219a]"
  DC50: "< 10 nM"
- Molecule: "COc1c(NC(=O)CN2CCC(CCCOc3ccc(-c4ccc(N5CCc6cccc(C(=O)Nc7nc8ccccc8s7)c6C5)nc4C(=O)O)c(C(F)(F)F)c3)CC2)ccc2c(C3CCC(=O)NC3=O)nn(C)c12 (stereo not drawn) [Compound 142]"
  DC50: "10 to 100 nM"

Request: I am curious: what DC50 value has been reported for Cc1c(OC2CCC3(CC2)CCN(CC(=O)Nc2ccc4c(C5CCC(=O)NC5=O)nn(C)c4c2)CC3)cccc1-c1ccc(N2CCc3cccc(C(=O)Nc4nc5ccccc5s4)c3C2)nc1C(=O)O (stereo not drawn) [Compound 119] ?
Result: < 10 nM
